Recorded values, source paper doi:10.1101/366336.

MEASURED_ON: hPcf11 (in CF II);hClp1 (human;human, UniProt O94913;Q92989 1-1555;1-425, |)
Sequence (O94913 whole entry, chain 1 of 2): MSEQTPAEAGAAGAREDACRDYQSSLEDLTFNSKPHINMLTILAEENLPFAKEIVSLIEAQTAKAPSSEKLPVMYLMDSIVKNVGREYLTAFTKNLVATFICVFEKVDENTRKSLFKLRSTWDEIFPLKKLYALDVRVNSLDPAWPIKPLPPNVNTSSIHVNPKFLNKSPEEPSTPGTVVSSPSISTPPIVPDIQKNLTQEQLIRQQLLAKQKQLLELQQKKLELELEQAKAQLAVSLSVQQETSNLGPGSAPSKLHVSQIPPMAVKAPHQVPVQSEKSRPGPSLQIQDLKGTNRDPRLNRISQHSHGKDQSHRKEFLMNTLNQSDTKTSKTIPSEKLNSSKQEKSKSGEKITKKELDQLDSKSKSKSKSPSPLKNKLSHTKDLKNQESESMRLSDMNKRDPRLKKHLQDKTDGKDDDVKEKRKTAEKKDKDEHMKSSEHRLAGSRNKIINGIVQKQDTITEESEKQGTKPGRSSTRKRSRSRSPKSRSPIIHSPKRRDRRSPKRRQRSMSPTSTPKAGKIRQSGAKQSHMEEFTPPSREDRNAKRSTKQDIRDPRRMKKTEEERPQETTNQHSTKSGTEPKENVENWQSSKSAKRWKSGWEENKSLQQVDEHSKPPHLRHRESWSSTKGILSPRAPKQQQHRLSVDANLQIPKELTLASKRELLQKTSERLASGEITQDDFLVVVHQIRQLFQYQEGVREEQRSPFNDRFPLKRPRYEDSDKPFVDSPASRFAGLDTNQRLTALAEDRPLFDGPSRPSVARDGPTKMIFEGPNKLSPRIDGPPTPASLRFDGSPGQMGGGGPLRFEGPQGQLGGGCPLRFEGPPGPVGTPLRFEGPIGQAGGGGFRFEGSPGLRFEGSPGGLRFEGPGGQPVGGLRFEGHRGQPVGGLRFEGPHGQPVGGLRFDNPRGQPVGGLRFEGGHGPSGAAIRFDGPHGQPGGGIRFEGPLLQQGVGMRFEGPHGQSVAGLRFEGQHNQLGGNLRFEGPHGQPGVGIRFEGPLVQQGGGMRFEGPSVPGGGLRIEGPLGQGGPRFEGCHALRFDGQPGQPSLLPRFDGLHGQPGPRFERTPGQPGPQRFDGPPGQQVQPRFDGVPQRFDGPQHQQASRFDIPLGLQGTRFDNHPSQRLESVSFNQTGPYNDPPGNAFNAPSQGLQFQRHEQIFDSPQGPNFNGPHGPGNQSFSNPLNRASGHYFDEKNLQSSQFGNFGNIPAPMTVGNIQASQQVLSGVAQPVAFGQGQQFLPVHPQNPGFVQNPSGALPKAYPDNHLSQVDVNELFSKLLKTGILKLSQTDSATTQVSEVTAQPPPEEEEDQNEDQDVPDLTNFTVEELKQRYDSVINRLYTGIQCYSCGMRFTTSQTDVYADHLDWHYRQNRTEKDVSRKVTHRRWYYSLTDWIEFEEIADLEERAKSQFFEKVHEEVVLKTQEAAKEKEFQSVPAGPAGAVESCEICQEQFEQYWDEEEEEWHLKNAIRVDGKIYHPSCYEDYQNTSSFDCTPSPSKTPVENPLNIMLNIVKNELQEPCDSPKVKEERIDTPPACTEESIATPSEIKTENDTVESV
Sequence (Q92989 whole entry, chain 2 of 2): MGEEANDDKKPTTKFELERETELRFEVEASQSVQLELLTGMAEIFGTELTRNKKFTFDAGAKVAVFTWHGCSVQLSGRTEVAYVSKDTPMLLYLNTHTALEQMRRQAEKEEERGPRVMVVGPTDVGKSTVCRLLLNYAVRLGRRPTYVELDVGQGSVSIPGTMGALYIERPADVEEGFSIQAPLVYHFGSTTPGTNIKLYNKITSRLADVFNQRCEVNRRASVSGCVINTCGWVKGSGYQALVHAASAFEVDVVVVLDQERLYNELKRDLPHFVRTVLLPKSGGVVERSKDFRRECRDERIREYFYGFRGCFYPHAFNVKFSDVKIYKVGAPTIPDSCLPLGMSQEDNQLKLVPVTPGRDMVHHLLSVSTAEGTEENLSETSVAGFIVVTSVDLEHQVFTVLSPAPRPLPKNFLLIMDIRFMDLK
ASSAY_SUMMARY: EMSA
Consider the following binders; for each one, report its Kd.
// note: answer is a bare numeric in nM

Input UUUAAGUGGGUCACG (ssRNA) [BS2-d3] . Output Kd: 105

The reported value for GGGGGAGGUGUGGGAGGU (ssRNA) [208-225] in terms of Kd is 2.6

Query GGGGGGGGGGGGG (ssRNA) [G13] yields Kd of 21
